AC50 overview
- TARGET_OF_ASSAY: D(1A) dopamine receptor (Homo sapiens); also: assay procedure not described here
- Sequence (P21728 whole entry): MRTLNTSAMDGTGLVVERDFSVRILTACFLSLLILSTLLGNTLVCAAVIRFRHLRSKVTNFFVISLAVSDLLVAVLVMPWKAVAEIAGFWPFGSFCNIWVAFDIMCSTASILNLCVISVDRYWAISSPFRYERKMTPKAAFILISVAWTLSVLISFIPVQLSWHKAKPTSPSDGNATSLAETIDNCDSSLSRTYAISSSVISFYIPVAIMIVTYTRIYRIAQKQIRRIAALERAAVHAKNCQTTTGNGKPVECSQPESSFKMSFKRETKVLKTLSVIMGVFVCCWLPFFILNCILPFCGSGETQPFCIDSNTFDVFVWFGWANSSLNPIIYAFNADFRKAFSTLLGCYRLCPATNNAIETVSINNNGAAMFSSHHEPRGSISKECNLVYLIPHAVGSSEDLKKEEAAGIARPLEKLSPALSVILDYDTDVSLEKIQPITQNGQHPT
- Format: functional, cell-based

A selection of reference data follows.
COMPOUND | TARGET_OF_ASSAY | AC50
CO/N=C(\C(=O)N[C@@H]1C(=O)N2C(C(=O)O)=C(CSc3nc(=O)c(=O)[nH]n3C)CS[C@H]12)c1csc(N)n1 [CEFTRIAXONE] | D(1A) dopamine receptor (Homo sapiens) | > 30 µM
O=C(CCCN1CCC(O)(c2ccc(Br)cc2)CC1)c1ccc(F)cc1 [BROMPERIDOL] | D(1A) dopamine receptor (Homo sapiens) | > 30 µM
Cc1nnc(SCC2=C(C(=O)O)N3C(=O)[C@@H](NC(=O)Cn4cnnn4)[C@H]3SC2)s1 [CEFAZOLIN] | D(1A) dopamine receptor (Homo sapiens) | > 300 µM
CCc1nc(N)nc(N)c1-c1ccc(Cl)cc1 [PYRIMETHAMINE] | D(1A) dopamine receptor (Homo sapiens) | > 10 µM
CCN1CCCC1CNC(=O)c1cc(S(=O)(=O)CC)ccc1OC (stereo not drawn) [SULTOPRIDE] | D(1A) dopamine receptor (Homo sapiens) | > 30 µM

// returns reported AC50 for input CC(C)[C@H](N)C(=O)OCCOCn1cnc2c(=O)[nH]c(N)nc21 [VALACYCLOVIR]
> 10 µM

// returns reported AC50 for input CC(=O)c1ccc(S(=O)(=O)NC(=O)NC2CCCCC2)cc1 [ACETOHEXAMIDE]
> 10 µM
